- experimentalTarget: T1, human CD71 extracellular domain (human, UniProt P02786 89-760)
- T1 construct: also called hCD71; CD71-ECD
- T1 sequence (P02786 89-760): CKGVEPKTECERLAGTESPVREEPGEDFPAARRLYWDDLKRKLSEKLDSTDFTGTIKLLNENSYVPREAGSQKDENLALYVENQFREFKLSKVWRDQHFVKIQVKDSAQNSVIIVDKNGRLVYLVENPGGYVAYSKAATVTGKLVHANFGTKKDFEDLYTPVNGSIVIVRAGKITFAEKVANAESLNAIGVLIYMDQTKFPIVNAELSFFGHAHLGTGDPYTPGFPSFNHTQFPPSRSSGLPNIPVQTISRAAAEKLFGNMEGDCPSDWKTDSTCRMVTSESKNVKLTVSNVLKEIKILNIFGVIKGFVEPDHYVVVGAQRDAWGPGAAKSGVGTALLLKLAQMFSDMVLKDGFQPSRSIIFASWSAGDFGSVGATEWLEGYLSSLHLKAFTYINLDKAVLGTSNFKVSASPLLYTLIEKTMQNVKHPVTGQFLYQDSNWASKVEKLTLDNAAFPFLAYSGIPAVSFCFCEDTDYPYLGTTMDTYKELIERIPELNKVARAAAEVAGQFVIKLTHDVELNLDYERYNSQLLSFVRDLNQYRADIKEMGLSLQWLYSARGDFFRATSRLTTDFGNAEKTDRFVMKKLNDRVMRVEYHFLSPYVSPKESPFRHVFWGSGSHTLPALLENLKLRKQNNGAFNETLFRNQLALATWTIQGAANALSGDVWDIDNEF
- experimentalDetails: primary ELISA; further: test concentration or dose not given here
measuredProperty: RLU
The reply must contain the numeric value and, after it, the unit.

Consider the worked cases shown below.
CD71-binding FN3 domain SEQ ID NO 443 (designed binder) MLPAPKNLVVSRVTEDSARLSWTAPDAAFDSFFIGYLEPQPPGEAIELYVPGSERSYDLTGLKPGTEYNVTIQGVKGGFPSDPLHAAFTT : 5.38e+06 RLU
CD71-binding FN3 domain SEQ ID NO 422 (designed binder) MLPAPKNLVVSRVTEDSARLSWTAPDAAFDSFFIGYLEPQPPGEAISLLVPGSERSYDLTGLKPGTEYNVTIQGVKGGFPSHPLDASFTT : 2.97e+06 RLU
CD71-binding FN3 domain SEQ ID NO 350 (designed binder) MLPAPKNLVVSRVTEDSARLSWTAPDAAFDSFFIGYLEPQPPGEAISLFVPGSERSYDLTGLKPGTEYNVTIQGVKGGFPSMPLVAQFTT : 5.96e+06 RLU

Attention now turns to another entry.
Inquiry: Using the record for CD71-binding FN3 domain SEQ ID NO 438 (designed binder) MLPAPKNLVVSRVTEDSARLSWTAPDAAFDSFFIGYLEPQPPGEAIDLWVPGSERSYDLTGLKPGTEYNVTIQGVKGGFPSYPLLAIFTT , report its RLU.
Reply text: 4.96e+06 RLU
